Conditions: in water, 288.15 K
readout: solubility (mole fraction)

* NCCCCCC(=O)O | 0.126

###

Conditions: in methyl acetate, 293.15 K
readout: solubility (mole fraction)

- NCCCCCC(=O)O: 0.00014

###

Settings: in isopropanol, 288.15 K
readout: solubility (mole fraction)

* NCCCCCC(=O)O | 8.1e-05

###

Conditions: in isopropanol, 318.15 K
readout: solubility (mole fraction)

- NCCCCCC(=O)O: 0.000181

###

Conditions: in ethyl acetate, 288.15 K
readout: solubility (mole fraction)

* NCCCCCC(=O)O | 0.00016

###

Conditions: in water, 313.15 K
readout: solubility (mole fraction)

- NCCCCCC(=O)O: 0.155
